Molecular target: Cytochrome P450 2D6 (Homo sapiens)
Assay: Cytochrome panel assay with activity outcomes
Details: recombinant CYP, pro-luciferin dealkylation, luminescence, p450-cyp2d6; series mostly up to 57.1 µM
Out of some 16,000 compounds screened, about 2,600 (16%) were called active. Roughly 20% stayed inconclusive and do not appear here. Calls follow the shape of the dose curve; as a rule, active = well fitted curve in the direction sought with a large enough effect; inconclusive = small, poorly fitted or top-dose-only effect, or effect the other way; inactive = no such curve, though single readings can be large or run the other way. Not all results are given here.
Result category, one only: t = active, f = inactive

{"Compound": "COc1ccc(CCNC(=O)CC(NS(=O)(=O)c2ccc(NC(C)=O)cc2)C(C)C)cc1OC (stereo unspecified)", "Answer label": "f"}

Data request: # outcome recorded in this test, key = Cc1nc(N=Nc2cc(S(=O)(=O)O)ccc2S(=O)(=O)O)c(COP(=O)(O)O)c(C=O)c1O
Data returned: f

Data request: What about COc1ccccc1CNc1ncncc1-c1ccccc1C(F)(F)F ?
Data returned: t

Data request: What about O=C(NC1CCCCC1)C1CC=CCC1C(=O)OCC(Cl)=C(Cl)Cl (stereo unspecified) ?
Data returned: f

Data request: What about CC(=O)Nc1ccc(S(=O)(=O)c2ccc(N)cc2)cc1 ?
Data returned: f

Data request: What about COc1ccc(CNc2ncncc2-c2ccccc2C(F)(F)F)c(OC)c1 ?
Data returned: t
